- Protocol Summary: NCI Yeast Anticancer Drug Screen. Data for the sgs1 mgt1 strain (AID 161);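 also: 0% = growth of cultures given vehicle only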
- Reported Conditions: S. cerevisiae sgs1 mgt1 strain, at 50.0 µM, active compounds read high
This is part of a sample that, as a whole, favours compounds with a hit. Of some 79,000 tested, about 15% had one in any assay.
For each record, write down the corresponding growth inhibition.
Your answer should be a plain number; it is taken to be in %.

Which value of growth inhibition has been reported for Cc1ccc(-n2cc(-c3ccc(Cl)cc3)c3c(N)ncnc32)cc1 in the records?
98.3

Which growth inhibition is reported for this compound? C=CCOc1ccc(N=NC(C#N)C#N)cc1
52.7

# lookup: growth inhibition of NNC(=O)NN=C(c1ccccc1)c1ccccc1
11.4

Recorded growth inhibition for CN(C)c1ccc(C(=C2C=CC(=[N+](C)C)C=C2)c2ccc(N(C)C)cc2)cc1 (tested in a mixture with another compound) , please?
89.7

growth inhibition lookup needed for O=C(O)C1C(C(=O)O)C23CC2(C(=O)O)C2(C(=O)O)CCC3=C3CCCC312 (stereo not drawn) , thanks.
47.8

Which growth inhibition value belongs to CCC(CC)COC(=O)c1ccc(O)c(O)c1 ?
48.1

Reported growth inhibition, compound CCOC(=O)/C(=C/c1ccccn1)C(=O)c1ccccc1 : ____
84.8

Would you kindly share the measured growth inhibition for NC(=S)N/N=C\c1nccc2c(C(F)(F)C(F)(F)C(F)(F)F)cccc12 ?
74

growth inhibition for Oc1ccc2ccc3ccccc3c2c1 ?
99.5

Give the measured growth inhibition of O=[N+]([O-])c1cc(CN(CCO)CCO)c(O)c2ncccc12 .
99

I am curious: what growth inhibition value has been reported for COc1cc2oc(-c3ccc(O)cc3O)c(CC=C(C)C)c(=O)c2c(O)c1/C=C/C(C)C ?
91

Query: growth inhibition; subject: O=C1CCSC(=S)N1c1ccc(N=Nc2ccccc2)cc1
97.2

Quick one: growth inhibition of Nc1ccc(Sc2c3ccccc3nc3ccccc23)cc1 ?
87.2

Look at this compound and give its reported growth inhibition. CCCCC(=O)N/N=C/c1ccc([N+](=O)[O-])s1
94.5

Which growth inhibition is reported for this compound? COc1ccc2nc3cc(Cl)ccc3c(NCCNc3c4ccc(Cl)cc4nc4ccc(OC)cc34)c2c1
96.2

Quick one: growth inhibition of CN(Cc1ccccc1)c1nc(=[N+](C)C)ss1 ?
26.3

Need growth inhibition of S=C(NC(=S)Nc1ccc(Cl)cc1)Nc1ccc(Cl)cc1 , thanks.
72.1

Could you tell me which growth inhibition is on file for O=Nc1c(O)ccc2ccccc12.[Fe].[Na+] ?
98.5

Value lookup for growth inhibition; key = NS(=O)(=O)c1ccc(NC(=S)/N=C\C(C(=O)c2ccccc2)=C(\O)c2ccccc2)cc1
9.8

Recorded growth inhibition for OC1C2COc3nc4ccccc4n3C(O2)C1O (stereo not drawn) , please?
-10.4

Name the reported growth inhibition value associated with the compound CCN(CC)CCCNc1c(O)cc(C)c2sc3ccccc3c(=O)c12
99

Quick one: growth inhibition of O=c1cc(-c2ccccc2)[nH]c2ccc(N3CCCC3)cc12 ?
-29.9

Which growth inhibition is listed for Cn1cnc([N+](=O)[O-])c1Sc1nc2cccnc2s1 ?
67.8

----------
- Protocol Summary: NCI Yeast Anticancer Drug Screen. Data for the rad50 strain (AID 155);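 also: 0% = growth of vehicle-only cultures of the same strain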
- Reported Conditions: S. cerevisiae rad50 strain growth inhibition; at 50.0 µM; active compounds read high
The panel holds about 79,000 compounds, 15% with a hit somewhere; the sample as a whole holds those more often. Calls of active or inactive are those of the source. No stated cut-off is given here; in the data, active means growth inhibition above about 70%; inactive means the rest.
Value Type: growth inhibition

What growth inhibition value was documented for this compound, ClC1=C(Cl)C2c3ccccc3C1c1ccccc12 ?
93.6% (active)

Given the entry Nc1c(F)cccc1F , report its measured growth inhibition.
-16.3% (inactive)

I'd like to know its growth inhibition. The compound in question is OC(CCl)COc1c(Cl)c(Cl)c(Cl)c(Cl)c1Cl (configuration not stated)
-1% (inactive)

I'd like to know its growth inhibition. The compound in question is C/C(=N\NC(=S)N(C)CCN(C)C(=S)N/N=C(\C)c1ccccn1)c1ccccn1
97.5% (active)

Give its growth inhibition value. Item: CNC(=O)c1ccc(OC)cc1C1(O)c2ccccc2CCc2ccccc21
58.6% (inactive)

Field request: growth inhibition | item: CC(=O)N(c1ccccc1)c1nc2ccccc2s1
-41.2% (inactive)

Quick check: growth inhibition of Cc1cc(C(C)(CC(C)C)c2ccc(O)c(C)c2)ccc1O ?
91.1% (active)

# input compound: O=C1c2cc3c(cc2CC1Br)CCC3 (configuration not stated) ; wanted: its growth inhibition
79.5% (active)

Entry c1cc(C2=NCCN2)ccc1Nc1ccc(-c2cc3ccc(C4=NCCN4)cc3[nH]2)cc1 has what growth inhibition?
58.1% (inactive)

What does the record list as growth inhibition for COC(CCC[N+](C)(C)C)CC[N+](C)(C)C (configuration not stated) ?
95.9% (active)

Reported growth inhibition for c1ccc2c(c1)C[n+]1ccc3ccccc3c1-c1c3ccccc3cc[n+]1C2 : what is it?
64.2% (inactive)

Need growth inhibition, item NC(CCC(=O)NC(CS(=O)(=O)O)C(=O)O)C(=O)O (configuration not stated)
13.2% (inactive)

Report growth inhibition for COc1ccc(C(=O)CC2(O)C(=O)N(C)c3c(Cl)cc(Cl)cc32)cc1 (configuration not stated) please.
67.6% (inactive)

Sample CCOc1ccc(-c2nc3ccc(-c4nc5ccc(N6CCN(C)CC6)cc5[nH]4)cc3[nH]2)cc1 — what was its growth inhibition?
88.7% (active)

What measured growth inhibition goes with CCCCCC(=O)/C=C/c1ccc(C)cc1 ?
82.6% (active)

Can you share its growth inhibition? I mean this compound: O=c1[nH]c(=S)[nH]c(-c2ccccc2)c1Cc1c(O)ccc2ccccc12
88.7% (active)

Looking for the measured growth inhibition of CN(C)c1ccc2c(c1)Cc1cc(NC(=O)/C=C/C(=O)O)ccc1-2 , can you help?
-6.7% (inactive)

Can you look up the measured growth inhibition of CCOc1ncc(Cl)c(OCC)n1 for me?
-25.4% (inactive)

What does the data say about its growth inhibition? Entry: CC(CN(CC(=O)O)CC(=O)O)N(CC(=O)O)CC(=O)O.[Cl][Pd][Cl] (configuration not stated)
88.3% (active)

Any idea what its growth inhibition is? The compound is CN(C)CCCNc1ccc(O)c2sc3ccccc3c(=O)c12
69.7% (inactive)

Requested read-out: growth inhibition. Entry: OCc1ccccc1CC(O)(c1ccccc1)c1ccccc1
97.8% (active)

Look at this compound and give its reported growth inhibition. CC(C)C(NC(=O)/C=C\c1ccccc1)C(=O)O (configuration not stated)
88.4% (active)

Need growth inhibition, item CCN(CC)CCOc1ccc(/C(C#N)=C/c2ccc(C(F)(F)F)cc2)cc1
75.5% (active)

Name the reported growth inhibition value associated with the compound CC1=NC(=Cc2ccc(Cl)cc2)C(=O)N1n1c(-c2ccccc2)nc2ccccc2c1=O
67.3% (inactive)

Please give the measured growth inhibition for this compound: Fc1ccc(CN2COc3c(cc(Cl)c4cccnc34)C2)cc1
99.2% (active)

Would you mind telling me what growth inhibition value was observed for O=c1ccccn1CCc1cccc2cc(O)ccc12 ?
12.9% (inactive)

Returns the measured growth inhibition for the input compound. Input: O=C1OC(CCCl)(c2ccccc2)CC1CN1CCOCC1 (configuration not stated)
70% (active)

Reported growth inhibition, compound Oc1ccc(-c2ccccc2)cc1Br : ____
99.4% (active)

Fill in: growth inhibition of Nc1c(O)c(Cl)cc(Cl)c1Cl is ___
96.2% (active)

Value lookup for growth inhibition; key = O=C(Nc1cccc(Br)c1)Oc1ccc(Cl)c2cccnc12
89% (active)

For CCCCCCCC1SCC(=O)N1c1nncs1 (configuration not stated) , what is its reported growth inhibition?
-10.8% (inactive)

Fill in: growth inhibition of CCCCCCCCCCCCCCCCCCn1[se]c2ccccc2c1=O is ___
69.3% (inactive)

Would you mind telling me what growth inhibition value was observed for CCOC(=O)C(CCSC)C(=O)OCC ?
11% (inactive)

Quick one: growth inhibition for C[C@]12CC[C@H](O)C[C@@H]1CC[C@@H]1[C@@H]2C(=O)C[C@]2(C)C3=CC(=O)O[C@H]3C[C@@H]12 ?
98.2% (active)

Tell me the measured growth inhibition of Cc1cccc(C)c1N1C(=O)C(=O)C(c2nc3ccccc3s2)/C(=N/NC(=O)c2ccccc2O)C1=O (configuration not stated) , please.
71.9% (active)

Look up growth inhibition: Cn1c(N)c(NC(=O)CCl)c(=O)n(C)c1=O
16.4% (inactive)

Data request, read-out growth inhibition, for CCOC(=O)/C=C(\C)OCC
16.3% (inactive)

Requested field: growth inhibition. Item: O=C(Nc1ccc(F)c([N+](=O)[O-])c1)NC(Cc1ccccc1)c1ccccc1 (configuration not stated)
91.6% (active)

Need growth inhibition, item CSC(SC)=C(C#N)C(=O)Nc1ccc(C)cc1
40.5% (inactive)

Look at this compound and give its reported growth inhibition. Cn1cc(NC(=O)c2cc(NC(=O)CCCCCCCC(=O)Nc3cc(C(=O)Nc4cc(C(=O)NCCC(=N)N)n(C)c4)n(C)c3)cn2C)cc1C(=O)NCCC(=N)N
86.8% (active)

I'd like to know its growth inhibition. The compound in question is O=C1C=CC(=O)c2c1oc1ccccc21
60.7% (inactive)

Name the recorded growth inhibition for CC(=O)C1C(S)CC2C3CC=C4CC(O)CCC4(C)C3CCC21C (configuration not stated) .
98.8% (active)

Field request: growth inhibition | item: CCCCNC(=S)NC1C2CC3CC(C2)CC1C3 (configuration not stated)
97.4% (active)

# growth inhibition lookup, item Nc1ccc(C2CCC[C@H]2c2ccc(N)cc2)cc1 (some centres not stated)
48.8% (inactive)

Name the reported growth inhibition value associated with the compound Cn1cc(NC(=O)c2cc(NC(=O)CCCCCCCCC(=O)Nc3cc(C(=O)Nc4cc(C(=O)NCCC(N)N)n(C)c4)n(C)c3)cn2C)cc1C(=O)NCCC(=N)N
89.8% (active)

Which value of growth inhibition has been reported for COc1ccc(C(c2cc3c(cc2O)OCO3)N2CCOCC2)cc1OC (configuration not stated) in the records?
77.5% (active)

GET /values?readout=growth inhibition&item= Cc1cc2nc(CS)[nH]c2cc1C
66.3% (inactive)
